These entries and their values trace back to PubChem BioAssay (NCI).

Would you kindly list growth for each of these molecules?
System: TK-10 renal
Experiment: NCI-60 one-dose screen, 48 h (100 = growth as untreated, 0 = no growth, -100 = all killed)
Conditions: 10 µM unless noted
Experimental: Growth inhibition of the TK-10 human tumor cell line is measured as a screen for anti-cancer activity. Cells are grown in 96 well plates and exposed to the test compound for 48 hours. Compounds are tested at a single concentration, which is 10^-5 M for most compounds. The reported endpoint is percent growth (GI% or GIPRCNT), where numbers from 0 - 100% represent growth inhibition, and numbers from -100% - 0 represent cell death. For example, a value of 40 represents 60% growth inhibition. […]
The panel holds about 83,000 compounds, 20% with a hit somewhere; the sample as a whole holds those more often.
Numbers only; they are read as %.

Which growth is reported for this molecule? CCN(CC)C(=O)C1=C(C)NC(=O)NC1c1ccc2c(c1)OCO2 (centres undefined)
100

Which growth is reported for this molecule? Cc1ccc2c(c1)nc(C)n2-c1ncnc2c1CC(C)c1cc(O)ccc1N2C (centres undefined)
56.1

Which growth is reported for this molecule? COC(=O)/C(CCC=C(C)C)=C1\[C@@H](OC(C)=O)C[C@@]2(C)[C@H]1C/C(=N/O)[C@H]1[C@@]3(C)CC/C(=N\O)[C@@H](C)[C@@H]3CC[C@@]12C
119

Which growth is reported for this molecule? Fc1cc2[nH]ncc2c2c3c(c(-c4cn[nH]c4C(F)(F)F)nc12)CCCC3
-8.31

Which growth is reported for this molecule? O=C(/C=C/C12c3ccccc3C(c3ccccc31)C1C(=O)NC(=O)C12)c1ccc(Cl)cc1Cl (centres undefined)
22.4

Which growth is reported for this molecule? COc1ccc(C(=O)Nc2ncc(Cc3ccc(Cl)cc3)s2)cc1
58.9

Which growth is reported for this molecule? COc1ccc(C2[C@@H](c3ccccc3)C(=O)N2c2cc(OC)c(OC)c(OC)c2)cc1F (some centres undefined)
43.7

Which growth is reported for this molecule? COc1ccc(Oc2ccc(/C=C/C(=O)c3cc4ccccc4oc3=O)cc2)cc1
147

Which growth is reported for this molecule? COc1cc(Cc2cc(-c3ccccc3)nn(Cc3ccccc3)c2=O)cc(OC)c1OC
45.2

---

tested on: NCI-H23 lung; experiment: NCI-60 one-dose screen, 48 h; settings: 10 µM unless noted
About 83,000 compounds went through this panel and 20% of them were active in at least one assay; those are over-represented in the sample as a whole. Active and inactive are the calls of the source. How the source made its calls: active means growth percent below 10; inactive means the rest.
Assign a class; possible classes are 1 (active), -1 (inactive)

Would you mind telling me which call this test gave Nc1ncnc2c1N=C(c1ccc(Cl)cc1)CC(c1cccc(Nc3ccnc4cc(Cl)ccc34)c1)N2 (centres undefined) ?
-1

Would you mind telling me which call this test gave Oc1nc(NCc2ccccc2)sc1/C=C1\C=Nc2ncccc21 ?
-1

Would you mind telling me which call this test gave CNCC[C@H](Oc1cccc2ccccc12)c1cccs1 ?
-1

Would you mind telling me which call this test gave CC(O)CNC(Cc1ccccc1)c1ccc2c(c1)OCO2 (centres undefined) ?
-1

Would you mind telling me which call this test gave CCOc1ccc(/C=C/C(=O)c2cccc(OCCCOc3cccc(C(=O)/C=C/c4ccc(OCC)cc4)c3)c2)cc1 ?
-1

Would you mind telling me which call this test gave O=C1C(Cl)=C(Nc2ccccc2)C(=O)c2ccccc21 ?
1

Would you mind telling me which call this test gave COC(=O)c1c2c(c[n+]([O-])c1C)C(=O)C=C(NCc1ccccc1)C2=O ?
1

Would you mind telling me which call this test gave Cc1ccc(S(=O)(=O)OC[C@]23CCC(C)(C)C[C@H]2C2=CC[C@@H]4[C@@]5(C)CCCNC(C)(C)[C@@H]5CC[C@@]4(C)[C@]2(C)CC3)cc1 ?
-1

Would you mind telling me which call this test gave Cc1c2ccccc2nc2cc3c(cc12)[C@H]1CC[C@]2(C)C(=O)CC[C@H]2[C@@H]1CC3 ?
-1

Would you mind telling me which call this test gave O=Nc1ccc(NC(=O)Nc2ccc([N+](=O)[O-])cc2)cc1 ?
-1

Would you mind telling me which call this test gave O=C(NN1C(=O)CSC1c1cccc([N+](=O)[O-])c1)c1ccc(NC(=O)c2ccccn2)cc1 (centres undefined) ?
-1

Would you mind telling me which call this test gave Fc1ccc2[nH]cc(-c3nc(-c4c[nH]c5c(Cl)nccc45)cs3)c2c1 ?
-1

Would you mind telling me which call this test gave CN(C)c1ccc([C@@H](C(=O)Nc2cccc([N+](=O)[O-])c2)N(C(=O)c2cc3ccccc3[nH]2)c2cccc([N+](=O)[O-])c2)cc1 ?
-1

Would you mind telling me which call this test gave COc1ccc(C(O)c2cc3c(N)c(C(=O)Nc4cccc5ccccc45)sc3nc2C)cc1 (centres undefined) ?
-1

Would you mind telling me which call this test gave COc1ccc(N/N=C/c2cn(-c3ccc(C(=O)O)cc3)nc2-c2cc3ccccc3oc2=O)cc1 ?
-1

Would you mind telling me which call this test gave O=c1oc2ccccc2cc1-c1nn(-c2ccccc2)cc1-c1nn[nH]n1 ?
-1

Would you mind telling me which call this test gave CCOc1ncc([N+](=O)[O-])c(OCC)n1 ?
-1

Would you mind telling me which call this test gave C=C(C)[C@@H]1CC[C@]2(C(=O)N3CCNCC3)CC[C@]3(C)[C@H](CC[C@@H]4[C@@](C)(CCC(=O)N5CCNCC5)[C@H](C(=C)C)CC[C@]43C)[C@@H]12 ?
-1

Would you mind telling me which call this test gave CCOC(=O)C/C(=N\Nc1cc(=O)[nH]c2ccc(OC)cc12)C(=O)OCC ?
-1
